Molecular target: T1, BALBc mouse SIRP-α (mouse (BALB/c strain))
T1 chain: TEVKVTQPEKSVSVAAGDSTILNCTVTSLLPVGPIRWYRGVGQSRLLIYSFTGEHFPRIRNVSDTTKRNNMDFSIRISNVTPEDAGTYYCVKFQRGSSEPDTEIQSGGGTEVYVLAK
Test: SPR
endpointLabel: Kd (nM)
The reply should be a number in nM, with the unit left off.

The binder Hum1/AB25_HC_Mutall (antibody, V domains shown) VH: EVQLVESGGGVVQPGGSLRLSCAASGFTFSSNAMSWVRQAPGKGLEWVAGISSGSDTYYGDSVKGRFTISRDNSKNTLYLQMNSLTAEDTAVYYCARETWNHLFDYWGQGTLVTVSS VL: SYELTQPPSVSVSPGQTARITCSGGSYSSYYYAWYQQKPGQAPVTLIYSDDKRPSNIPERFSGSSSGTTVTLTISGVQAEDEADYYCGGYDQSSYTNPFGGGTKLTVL showed Kd equal to 7.25
